# Test system: human non-small cell lung cancer cell line A549
# protocol.text: Cytotoxicity experiment, SRB method, tumor cell proliferation
# Assay type: cell-based
# assay.context: Homo sapiens, A549, 48 h, read-out: IC50 (μmol/L) Non-small cell lung cancer cell A549
Property: pIC50; scope: individual molecules
Expect pIC50 as a plain number equal to -log10 of the molar concentration.

Use the examples below as a reference point.
• COc1cc2ncnc(Nc3ccc(F)c(Cl)c3)c2cc1OCCNCCN [ZW1001] = 4.29
• COc1cc2ncnc(Nc3ccc(F)c(Cl)c3)c2cc1OCCCNCCN [ZW1002] = 4.24
• CC(=O)O[C@H]1C(=O)[C@@]2(C)[C@H]([C@H](OC(=O)c3ccccc3)[C@]3(O)C[C@H](OC(=O)[C@H](O)[C@@H](NC(=O)c4ccccc4)c4ccccc4)C(C)=C1C3(C)C)[C@]1(OC(C)=O)CO[C@@H]1C[C@@H]2O [Taxol, reference compound] = 5.39

Next up:
Req: Requested read-out: pIC50. Entry: COc1cc2ncnc(Nc3ccc(F)c(Cl)c3)c2cc1OCCn1ccnc1 [JLY1002]
Resp: 4.32

###

# System: keratinocyte Colo-16
# protocol.text: Cytotoxicity experiment, SRB method, tumor cell proliferation
# Type: cell-based
# assay.context: Keratinocyte; Colo-16, 48 h, SRB; read-out: IC50 (μmol/L) Keratinocyte Colo-16
experimental.endpoint: pIC50
Expect pIC50 as a plain number equal to -log10 of the molar concentration.

Req: Requested read-out: pIC50. Entry: COc1cc2ncnc(Nc3ccc(F)c(Cl)c3)c2cc1OCCCNCCN [ZW1002]
Resp: 4.84

Req: Requested read-out: pIC50. Entry: COc1cc2ncnc(Nc3ccc(F)c(Cl)c3)c2cc1OC [LQ1001, reference compound]
Resp: 4.05

Req: Requested read-out: pIC50. Entry: CC(=O)O[C@H]1C(=O)[C@@]2(C)[C@H]([C@H](OC(=O)c3ccccc3)[C@]3(O)C[C@H](OC(=O)[C@H](O)[C@@H](NC(=O)c4ccccc4)c4ccccc4)C(C)=C1C3(C)C)[C@]1(OC(C)=O)CO[C@@H]1C[C@@H]2O [Taxol, reference compound]
Resp: 5.97

###

# protocol.text: Stability (physicochemical properties, Table 1)
# assay.context: light
experimental.endpoint: Stability (photostability)

- COc1cc2ncnc(Nc3ccc(F)c(Cl)c3)c2cc1OCCC[N]1CC[NH][Ru+]1([Cl])[c]1ccccc1.F[P-](F)(F)(F)(F)F (stereo not drawn): photostable
- COc1cc2ncnc(Nc3ccc(F)c(Cl)c3)c2cc1OCCBr: photostable
- COc1cc2ncnc(Nc3ccc(F)c(Cl)c3)c2cc1OCCC[N]1CC[NH][Ru+]1([Cl])[c]1cccc(-c2ccccc2)c1.F[P-](F)(F)(F)(F)F (stereo not drawn): photostable

###

List of IC50 tested on EGFR (Epidermal Growth Factor Receptor) (Homo sapiens, UniProt P00533).
Sequence (P00533 25-1210): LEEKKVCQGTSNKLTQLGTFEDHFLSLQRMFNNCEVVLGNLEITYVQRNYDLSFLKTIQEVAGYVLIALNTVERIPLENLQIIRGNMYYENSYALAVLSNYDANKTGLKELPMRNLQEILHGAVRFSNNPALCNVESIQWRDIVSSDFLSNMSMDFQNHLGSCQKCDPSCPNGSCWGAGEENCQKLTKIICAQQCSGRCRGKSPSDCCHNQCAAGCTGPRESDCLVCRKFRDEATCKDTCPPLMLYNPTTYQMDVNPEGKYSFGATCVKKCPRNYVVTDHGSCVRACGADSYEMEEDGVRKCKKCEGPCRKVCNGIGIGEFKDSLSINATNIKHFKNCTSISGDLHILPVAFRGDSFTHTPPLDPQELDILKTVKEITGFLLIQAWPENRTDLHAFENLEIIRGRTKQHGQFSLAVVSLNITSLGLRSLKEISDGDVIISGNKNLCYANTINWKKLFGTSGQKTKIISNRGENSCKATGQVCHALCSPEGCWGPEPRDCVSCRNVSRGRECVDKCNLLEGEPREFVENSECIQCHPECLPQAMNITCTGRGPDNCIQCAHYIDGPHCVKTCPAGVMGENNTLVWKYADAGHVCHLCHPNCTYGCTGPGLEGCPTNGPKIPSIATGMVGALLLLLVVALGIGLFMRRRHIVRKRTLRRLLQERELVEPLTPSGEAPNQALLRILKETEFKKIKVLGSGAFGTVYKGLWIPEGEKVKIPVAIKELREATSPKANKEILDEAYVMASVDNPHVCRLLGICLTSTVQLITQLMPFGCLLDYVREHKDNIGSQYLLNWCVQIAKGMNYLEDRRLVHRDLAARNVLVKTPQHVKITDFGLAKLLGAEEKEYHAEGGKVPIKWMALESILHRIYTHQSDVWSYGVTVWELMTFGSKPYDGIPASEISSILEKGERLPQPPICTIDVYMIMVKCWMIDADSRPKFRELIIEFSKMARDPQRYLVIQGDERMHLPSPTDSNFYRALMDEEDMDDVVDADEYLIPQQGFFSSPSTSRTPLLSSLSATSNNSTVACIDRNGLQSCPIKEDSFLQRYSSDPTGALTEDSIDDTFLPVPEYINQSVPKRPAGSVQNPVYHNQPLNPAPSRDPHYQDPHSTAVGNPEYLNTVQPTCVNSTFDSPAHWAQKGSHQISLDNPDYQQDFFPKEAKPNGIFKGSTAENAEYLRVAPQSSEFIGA
Answer with a number only, understood to be in nM.

Use the examples below as a reference point.
• COc1cc2ncnc(Nc3ccc(F)c(Cl)c3)c2cc1OCC[N]1CC[NH][Ru+]1([Cl])[c]1ccccc1.F[P-](F)(F)(F)(F)F (centres unmarked) [ZW2002] = 93.8
• COc1cc2ncnc(Nc3ccc(F)c(Cl)c3)c2cc1OCCC[N]1CC[NH][Ru+]1([Cl])[c]1ccccc1.F[P-](F)(F)(F)(F)F (centres unmarked) [ZW2005] = 174
• COc1cc2ncnc(Nc3ccc(F)c(Cl)c3)c2cc1OCC[N]1CC[NH][Ru+]1([Cl])[c]1cccc(-c2ccccc2)c1.F[P-](F)(F)(F)(F)F (centres unmarked) [ZW2003] = 126

Req: Tell me reported IC50 for COc1cc2ncnc(Nc3ccc(F)c(Cl)c3)c2cc1OCCC[N]1CC[NH][Ru+]1([Cl])[c]1cccc(-c2ccccc2)c1.F[P-](F)(F)(F)(F)F (centres unmarked) [ZW2006] , tested with EGFR (Epidermal Growth Factor Receptor) (Homo sapiens, UniProt P00533).
Resp: 76.2

Req: Tell me reported IC50 for COc1cc2ncnc(Nc3ccc(F)c(Cl)c3)c2cc1OCC[N]1CC[NH][Ru+]1([Cl])[c]1cc(C(C)C)ccc1C.F[P-](F)(F)(F)(F)F (centres unmarked) [ZW2001] , tested with EGFR (Epidermal Growth Factor Receptor) (Homo sapiens, UniProt P00533).
Resp: 81

Value source: patent US9233995B2
